test system: OVCAR-8 ovarian; assay: NCI-60 one-dose screen, 48 h (100 = growth as untreated, 0 = no growth, -100 = all killed); conditions: 10 µM unless noted
This is part of a sample that, as a whole, favours compounds with a hit. Of some 83,000 tested, about 20% had one in any assay.
PROPERTY NAME: growth (%)
Dear colleague, please return just the value in %, with no unit written.

# COMPOUND, growth, %
rows = [
    ("Cc1ccc(-n2cc(/C=N/NC(=O)c3nc(N)n[nH]3)c(-c3ccc(S(C)(=O)=O)cc3)n2)cc1", 100),
    ("C=C1CC[C@@H]2[C@]3(C)COC(c4ccccc4)O[C@@H]3CC[C@@]2(C)[C@@H]1C/C=C1/C(=O)OC[C@H]1O (some centres undefined)", 56.6),
    ("CCO/C=N/C1=C(C#N)C(c2ccc(F)cc2)c2sc3c(CC)cccc3c2O1 (centres undefined)", 27.2),
]

Identify measured growth associated with CC[C@H](CO)Nc1ccc2ncc(C#Cc3cncc(C(=O)Nc4ccc(CN5CCN(C)CC5)c(C(F)(F)F)c4)c3)n2n1 -58.1

----------
system: EKVX NSCLC; assay: NCI-60 one-dose screen, 48 h (100 = growth as untreated, 0 = no growth, -100 = all killed); settings: 10 µM unless noted
The panel holds about 83,000 compounds, 20% with a hit somewhere; the sample as a whole holds those more often.
Labelling field: enter condition met if recorded growth is less than 80%. Enter condition not met if it equals or exceeds that cut-off.

// below: answered compounds
# COMPOUND, ANSWER LABEL
data = [
    ("C#CCOC(=O)[C@@H]1CCCN1CC#C", "condition not met"),
    ("COc1ccc(NC(=O)Nc2ccc3c(ccn3C(=O)c3cccc(F)c3)c2)cc1", "condition not met"),
    ("NC(N)=Nc1ccc(Oc2cccc(NC(N)=Nc3ccc(I)cc3F)c2)cc1", "condition met"),
    ("C=C(C)[C@@H]1CC[C@]2(C(=O)NCCCCCN(CCC#N)CCC#N)CC[C@]3(C)[C@H](CC[C@@H]4[C@@]5(C)CCC(=O)C(C)(C)[C@@H]5CC[C@]43C)[C@@H]12", "condition met"),
    ("C=C(C=O)[C@@H]1CC[C@]2(COC(C)=O)CC[C@]3(C)C(CC[C@@H]4[C@@]5(C)CC[C@H](OC(C)=O)C(C)(C)[C@@H]5CC[C@]43C)[C@@H]12 (stereo partly drawn)", "condition met"),
]

Item CC(C)(C)c1ccc(-c2nnc(-c3nc4ccccc4nc3Cl)o2)cc1 : growth beneath 80%, strictly? condition not met

Item COc1cc(Cn2cc3c(c2)-c2onc(CN4CCCC4)c2CC3)cc(OC)c1OC : growth beneath 80%, strictly? condition met

Item COc1c(N2CC3CCCNC3C2)c(F)cc2c(=O)c(C(=O)N/N=C/c3ccc(N(C)C)cc3)cn(C3CC3)c12 (stereo not drawn) : growth beneath 80%, strictly? condition not met

----------
test system: HS 578T breast; test: NCI-60 one-dose screen, 48 h (100 = growth as untreated, 0 = no growth, -100 = all killed); conditions: 10 µM unless noted
This is part of a sample that, as a whole, favours compounds with a hit. Of some 83,000 tested, about 20% had one in any assay.
Labelling field: enter true (1) if recorded growth is less than 50%. Enter false (0) if it equals or exceeds that cut-off.

// below: answered compounds
# COMPOUND, ANSWER LABEL
rows = [
    ("COc1cc(-c2nc(-c3ccccc3)[nH]c2-c2ccnc(NCCCNS(=O)(=O)c3cccc(F)c3)n2)ccc1Cl", "false (0)"),
    ("Cn1cc(CNc2nc3ccc(OC/C(=C/F)CN)cc3o2)ccc1=O", "false (0)"),
    ("Cc1ccc(-c2nn(-c3ccccc3)cc2/C=C/C(=O)c2ccc(NC(=O)CCCCCCC(=O)NO)cc2)cc1", "true (1)"),
    ("c1ccc(C(c2nc3ncncc3[nH]2)N2CSc3nc4ccccc4n3C2)cc1 (configuration not stated)", "false (0)"),
    ("Cc1ccc(NC(=O)CNc2cc(C(N)=O)cc(F)c2C)c(Cl)c1", "false (0)"),
    ("CNC(=O)c1cc(Oc2ccc3nc(NC(=O)c4cccc(OC(F)(F)F)c4)sc3c2)ccn1", "false (0)"),
]

Item O=S(=O)(NCCCNc1nccc(-c2[nH]c(-c3ccccc3)nc2-c2ccc(Cl)c(O)c2)n1)c1ccc(Br)cc1 : growth beneath 50%, strictly? false (0)

Item C=C(C)[C@@H]1CC[C@]2(COC)CC[C@]3(C)[C@H](CC[C@@H]4[C@@]5(C)CCCNC(C)(C)[C@@H]5CC[C@]43C)[C@@H]12 : growth beneath 50%, strictly? true (1)

Item CN1CCC(n2cc(Nc3ncc4c(=O)n(-c5c(Cl)cccc5Cl)cc(Br)c4n3)cn2)CC1 : growth beneath 50%, strictly? true (1)

Item COc1cc2oc(-c3cccc(N)c3)cc(=O)c2c(OC)c1OC : growth beneath 50%, strictly? false (0)

----------
growth values, listed per item
tested on: MALME-3M melanoma; experiment: NCI-60 one-dose screen, 48 h (100 = growth as untreated, 0 = no growth, -100 = all killed); settings: 10 µM unless noted
The panel holds about 83,000 compounds, 20% with a hit somewhere; the sample as a whole holds those more often. Active and inactive are the calls of the source. How the source made its calls: active means growth percent below 10; inactive means the rest.

# MOLECULE, MEASURED VALUE
data = [
    ("COc1ccc(N2C(=O)c3cc(Cl)ccc3NC2SCc2ccccc2)cc1 (centres undefined)", "99.2% (inactive)"),
    ("C[C@@H](Nc1ncnc2ccc(-c3cnc(Cl)c(NS(C)(=O)=O)c3)cc12)c1ccccc1", "59.2% (inactive)"),
    ("O=S(=O)(Oc1ccc(-c2nnc(Nc3ccccc3)s2)cc1)C(F)(F)C(F)(F)C(F)(F)C(F)(F)C(F)(F)C(F)(F)F", "108% (inactive)"),
]

Next molecule, please.
Identify measured growth associated with Cc1ccc(NC(=O)N[C@@H](Cc2cc(F)cc(F)c2)C(=O)NC2C(=O)N3C[C@H](O)C[C@H]3C(=O)N3CCCC[C@H]3C(=O)N[C@@H](CO)C(=O)N3C[C@H](C)C[C@H]3C(=O)O[C@H]2C)c(F)c1 (some centres undefined) 50.7% (inactive)

----------
tested on: SR leukemia; experiment: NCI-60 one-dose screen, 48 h (100 = growth as untreated, 0 = no growth, -100 = all killed); conditions: 10 µM unless noted
The panel holds about 83,000 compounds, 20% with a hit somewhere; the sample as a whole holds those more often.
PROPERTY NAME: growth (%)
Dear colleague, please return just the value in %, with no unit written.

# count of solved cases: 5
# COMPOUND, growth / %
data = [
    ("COc1ccc(CCN2C(=O)CSC2=S)cc1", 65.8),
    ("O=C1/C(=C/C=C/c2ccco2)SC(=S)N1C1CCCCC1", 82.2),
    ("C=C(C=O)[C@@H]1CC[C@]2(C)[C@H](CC=C3[C@H]4[C@@H](C)[C@H](C)CC[C@]4(C(=O)OC)CC[C@]32C)[C@@]1(C)CCC#N", 0.262),
    ("COc1cc(-c2nn(C(C)(C)C)cc2-c2ccnc(NCCCNS(=O)(=O)c3cccc(F)c3)n2)ccc1Cl", 50.6),
    ("N#Cc1cccc(CN2CCc3ncn(Cc4ccc(Cl)cc4)c(=O)c3C2)c1", 36.2),
]

Provide SR leukemia growth reading for C[C@@H](Nc1ncnc2ccc(-c3cnc(Cl)c(NS(C)(=O)=O)c3)cc12)c1ccccc1 . 47.6

Provide SR leukemia growth reading for COc1ccc(C2c3sc4c(C)cccc4c3Oc3nc(CC(=O)Nc4ccccc4)[nH]c(=O)c32)cc1 (centres undefined) . 62.7

Provide SR leukemia growth reading for COc1cccc(N2CCN(c3ncnc4c3[nH]c3ccc(F)cc34)C[C@H]2C)c1 . 46.4

Provide SR leukemia growth reading for CN1CCN(Cc2ccc(NC(=O)c3cncc(C#Cc4cnn5cccnc45)c3)cc2C(F)(F)F)CC1 . -16.3

Provide SR leukemia growth reading for CCCCCCCn1cc2c(NCCc3ccccc3)ncnc2n1 . 85.4

Provide SR leukemia growth reading for N#Cc1c(Nc2ccccc2)nn2c(-c3ccc([N+](=O)[O-])cc3)ccnc12 . 103

Provide SR leukemia growth reading for COc1ccccc1C(=O)Nc1cccc2c1C(=O)C(=O)C=C2 . 58.2

Provide SR leukemia growth reading for Cc1[nH]c(C(=O)Nc2ccccc2OCc2cccc(C(=O)N3CCC[C@@H](N)C3)c2)c(Cl)c1Cl . -46.2

Provide SR leukemia growth reading for COc1ccc(OC)c(-c2nc(SCC(=O)c3ccc(Br)cc3)nc(Nc3ccc(S(N)(=O)=O)cc3)c2C#N)c1 . 13.9

Provide SR leukemia growth reading for COc1cc(-c2nn(C(C)(C)C)cc2-c2ccnc(NCCCNS(=O)(=O)c3ccc(C)cc3)n2)ccc1Cl . 51.3
